Origin of values: patent US20060211761A1

Target: HMG CoA Reductase
Assay: HMG CoA reductase inhibition, similar experiments with phenylhydroxy compounds of U.S. Pat. No. 5,385,929, Table 2
Assay type: biochemical
Settings: compared to atorvastatin
Protocol: Res. Comm., 50, 859 (1973). HMG-CoA reductase is regarded as a rate-limiting enzyme in cholesterol biosynthesis, catalyzing the following reaction: [^14C]HMG-CoA+2NADPH+2H+[^14C]mevanolate+CoA+2NADP+microsomes, utilizing 2.5 mM [^14C] HMG-CoA as a substrate. The reaction was carried out in presence of 100 mM KH2PO4, 20 mM G-6-P, 2.5 mM NADPH, 10 mM EDTA, 5 mM DTT and […], at 37° C. for 15 minutes and quantitating [^14C] mevalonate as an end product.
parameter: IC50 (nM)

>  <compound>
CC(C)c1c(C(=O)Nc2ccc(O)cc2)c(-c2ccccc2)c(-c2ccc(F)cc2)n1CC[C@@H](O)C[C@@H](O)CC(=O)O [Para-hydroxyatorvastatin]

>  <parameter>
IC50

>  <experimentalResult>
0.476

$$$$
>  <compound>
CC(C)c1c(C(=O)Nc2ccccc2O)c(-c2ccccc2)c(-c2ccc(F)cc2)n1CC[C@@H](O)C[C@@H](O)CC(=O)O [Ortho-hydroxyatorvastatin]

>  <parameter>
IC50

>  <experimentalResult>
0.264

$$$$
>  <compound>
CC(C)c1c(C(=O)Nc2cccc(O)c2)c(-c2ccccc2)c(-c2ccc(F)cc2)n1CCC(O)CC(O)CC(=O)O (stereo not drawn) [Meta-hydroxyatorvastatin]

>  <parameter>
IC50

>  <experimentalResult>
0.199

$$$$
